- METHOD DESCRIPTION: AUC (infinity) in fed CD-1 mouse at 1 mg/kg, iv as single dose
- Assay type: ADME, organism-based
- Parameters: time infinity, dose 1 mg/kg, route intravenous
- EXPERIMENTAL PARAMETERS: plasma

[
  {
    "GIVEN SMILES": "CNC(=O)Nc1ncc(SCCCOC)cc1Oc1cccnc1C",
    "AUC(0-inf) / ng·h/mL": 773
  }
]

====

- METHOD DESCRIPTION: Plasma concentration in C57BL/6 mouse at 3 mg/kg, po measured at 2.5 hrs
- Assay type: ADME, organism-based
- Set-up: dose 3 mg/kg, route oral
READOUT: concentration at 2.5 h (ng/mL)

[
  {
    "GIVEN SMILES": "CNC(=O)Nc1ncc(SCCCOC)cc1Oc1cccnc1C",
    "READOUT": "concentration at 2.5 h",
    "READING UNIT": "ng/mL",
    "MEASURED VALUE": 46
  }
]
